These entries and their values trace back to paper PMC6766826.

test system: HL-60; experiment: MTT assay, HL-60 cells; assay type: cell-based, human; conditions: 96 h exposure, leukemic cells
Endpoint Name: IC50 (µM)
Return type: number; implicit unit µM.

Q) Short answer please: IC50, HL-60, entry Cc1cc(C)nc(SCC(=O)Nc2ncc(Cc3cccc4ccccc34)s2)n1 [SirReal2, reference compound]
A) 90.6

====

tested on: HeLa; assay: MTT assay, HeLa cells; assay type: cell-based, human; conditions: 96 h exposure, cervical cancer
Endpoint Name: IC50 (µM)
Return type: number; implicit unit µM.

Q) Short answer please: IC50, HeLa, entry Cc1cc(C)nc(SCC(=O)Nc2ncc(Cc3cccc4ccccc34)s2)n1 [SirReal2, reference compound]
A) 10.4
